Recorded solubility values for a group of compounds are listed next.
assay: Solubility at pH 6.5 and pH 4.3 (water-solubility); conditions: water (aqueous medium; buffer not named), pH 4.3, aqueous buffer
Endpoint name: solubility

• CN1CCN([C@H]2CCN(C(=O)c3cc(C(F)(F)F)cc(C(F)(F)F)c3)C[C@H]2c2ccccc2)CC1 (racemic) = > 8.4 mg/mL
• O=C(c1cc(C(F)(F)F)cc(C(F)(F)F)c1)N1CC[C@H](N2CCNCC2)[C@H](c2ccccc2)C1 (racemic) = > 3.5 mg/mL
• O=C(c1cc(C(F)(F)F)cc(C(F)(F)F)c1)N1CCC(N2CCC(O)CC2)C(c2ccc(Cl)cc2)C1 (racemic) = 1 mg/mL
• O=C(c1cc(C(F)(F)F)cc(C(F)(F)F)c1)N1CC[C@H](N2CCN(CC3CC3)CC2)[C@H](c2ccccc2)C1 (racemic) = > 7.5 mg/mL
• CN1CCN([C@H]2CCN(C(=O)c3cc(C(F)(F)F)cc(C(F)(F)F)c3)C[C@H]2c2ccc(F)cc2)CC1 (racemic) = 2.4 mg/mL
